Assay: Dimensions (size, PDI) of DNPs co-assembled from IAJDs and Luc-mRNA by DLS
Assay type: physicochemical
Conditions: Table 16; DNPs from IAJD 4 mg/mL and Luc-mRNA 0.10 mg/mL by injection in acetate buffer (10 mM, pH 4.0)
PDI less than 0.3 is condition met; PDI greater than or equal to 0.3 is condition not met.

Example cases with answers are listed next.
Exam item: Below 0.3 on PDI? Entry CCCCCCCCCCCCCOc1cc(COC(=O)CCCN2CCN(CCO)CC2)cc(OCCCCCCCCCCC)c1
Marked response: condition not met

Exam item: Strictly below 0.3 in PDI? CCCCCCCCCCCCOc1cc(COC(=O)CCCN2CCN(CCO)CC2)cc(OCCCCCCCCCCC)c1
Marked response: condition met

Exam item: Would you kindly verify if PDI of CCCCCCCCCCCCCCCCCCOc1cc(COC(=O)CCCN2CCN(C)CC2)cc(OCCCCCCCCCCCCCCC)c1 is strictly less than 0.3?
Marked response: condition met

Exam item: Is it true that PDI reported for CCCCCCCCCCCCCCCCCOc1cc(COC(=O)CCCN2CCN(CCO)CC2)cc(OCCCCCCCCCCC)c1 is less than 0.3?
Marked response: condition met

Shift focus to the following entry.
Exam item: Hello, I'm reviewing records and need to know if PDI of CCCCCCCCCCCCCCCCCOc1cc(COC(=O)CCCN2CCN(C)CC2)cc(OCCCCCCCCCCC)c1 is below 0.3. Could you check?
Marked response: condition met
